- measured on: MMP-2 (Homo sapiens)
- Construct: made in house; host or cells: MMP-2-transfected p2AHT2 cells
- Sequence (P08253 110-660): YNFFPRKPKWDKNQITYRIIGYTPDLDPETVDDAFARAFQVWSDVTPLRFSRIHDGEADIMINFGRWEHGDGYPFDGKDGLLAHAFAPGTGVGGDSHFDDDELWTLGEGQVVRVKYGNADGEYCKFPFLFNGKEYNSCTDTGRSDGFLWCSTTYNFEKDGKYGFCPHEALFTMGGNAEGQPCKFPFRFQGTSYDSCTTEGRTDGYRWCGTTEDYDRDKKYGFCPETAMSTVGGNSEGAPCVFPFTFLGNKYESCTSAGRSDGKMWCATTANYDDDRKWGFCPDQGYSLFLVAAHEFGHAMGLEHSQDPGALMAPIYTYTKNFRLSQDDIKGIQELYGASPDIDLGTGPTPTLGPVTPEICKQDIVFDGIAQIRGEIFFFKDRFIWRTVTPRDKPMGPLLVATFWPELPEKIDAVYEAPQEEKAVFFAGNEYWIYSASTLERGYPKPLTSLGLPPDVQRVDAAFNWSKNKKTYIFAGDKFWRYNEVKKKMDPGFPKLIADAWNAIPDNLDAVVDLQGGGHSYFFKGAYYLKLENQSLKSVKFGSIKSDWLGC
- experiment summary: In vitro MMP inhibition, IC50 determination (fluorogenic substrate I)
- Format: biochemical
- condition summary: value in parenthesis; read-out: MMP-2 (IC-50)
pIC50: −log10 of the molar value.
quantity name: pIC50

1: COCCN1CCC(C(=O)NO)(S(=O)(=O)N2CCN(c3ccc(CC(C)C)cc3)CC2)CC1
2: COCCN1CCC(C(=O)NO)(S(=O)(=O)N2CCN(c3ccc(C)cc3)CC2)CC1
3: COCCN1CCC(C(=O)NO)(S(=O)(=O)N2CCN(c3ccccc3)CC2)CC1
Lookup: Exam item: list the entries in increasing order of pIC50. Give the labels in the order specified.
Found: 3, 1, 2

====

- measured on: MMP-13 (Homo sapiens)
- Construct: made in house; host or cells: baculovirus / insect cells
- experiment summary: In vitro MMP inhibition, Ki determination (fluorogenic substrate II)
- Type: biochemical
- condition summary: value outside parentheses; read-out: MMP-13 Ki
pKi: −log10 of the molar value.
quantity name: pKi

Lookup: Consider the molecule shown here: O=C(NO)C1(S(=O)(=O)N2CCN(c3ccc(CCCC(F)(F)F)cc3F)CC2)CCOCC1 [Example 386] What is its recorded pKi?
Found: 8.64

Lookup: Moving on to COCCN1CCC(C(=O)NO)(S(=O)(=O)N2CCN(c3ncccn3)CC2)CC1 [Example 332]
Found: 7.55

Lookup: Could you do the same for CCC=C1CCN(S(=O)(=O)C2(C(=O)NO)CCOCC2)CC1 [Example 374] , please?
Found: 8.24

Lookup: Cool, now CCCCOc1ccc(N2CCN(S(=O)(=O)C3(C(=O)NO)CCN(CCOC)CC3)CC2)c(F)c1 [Example 284]
Found: 9.92

Lookup: Please give the result for O=C(NO)C1(S(=O)(=O)N2CCN(c3ncc(-c4cccc(-c5ccccc5)c4)s3)CC2)CCOCC1 [Example 365] too.
Found: 7.00

A: CC(C)c1ccc(-c2cnc(N3CCN(S(=O)(=O)C4(C(=O)NO)CCOCC4)CC3)s2)cc1 [Example 366]
B: O=C(NO)C1(S(=O)(=O)N2CCC(c3ccc(-c4cccs4)c(F)c3)CC2)CCOCC1 [Example 407]
Lookup: Which of the two items, A and B , has the greater recorded pKi? Kindly state the label of the option you pick.
Found: A
(A: 9.74, B: 9.11)

a: O=C(NO)C1(S(=O)(=O)N2CCC(COCc3ccc(OC(F)(F)F)cc3)CC2)CCOCC1 [Example 404]
b: O=C(NO)C1(S(=O)(=O)N2CCC(COCc3ccc(C(F)(F)F)cc3)CC2)CCOCC1 [Example 403]
Lookup: Just tell me: smaller pKi value, a or b ? State your choice using its label.
Found: b

P: CCCCOc1ccc(N2CCN(S(=O)(=O)C3(C(=O)NO)CCN(C(=O)C(C)(C)C)CC3)CC2)cc1 [Example 267]
Q: CCCCOc1ccc(N2CCN(S(=O)(=O)C3(C(=O)NO)CCNCC3)CC2)cc1F [Example 286]
R: CCc1ccc(-c2ccc(C3CCN(S(=O)(=O)C4(C(=O)NO)CCOCC4)CC3)nc2)cc1 [Example 393]
Lookup: Arrange the 3 molecules from largest to smallest pKi. Labels, ranked as asked.
Found: P, R, Q
